These measurements were taken from the RNAGym collection of RNA variant scans (doi:10.7554/elife.80360).

B1: CPEB3 Ribozyme (parent)
chain: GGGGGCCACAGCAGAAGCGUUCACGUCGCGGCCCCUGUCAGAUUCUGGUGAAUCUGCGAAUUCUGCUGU

- Variants of: B1
- assay_notes: self-cleavage, relative activity (ratio to wild type); higher = more cleavage; co-transcriptional
measured_property: self-cleavage
Give your answer as a number; write no unit.

// self-cleavage value for G11U C39A : 0.36

// self-cleavage value for G5A C54U : 0.893

// self-cleavage value for G19U G28A : 0.122

// self-cleavage value for C24G G28A : 0.14

// self-cleavage value for G19U C54G : 0.317

// self-cleavage value for G4A A59C : 0.32

// self-cleavage value for G2C U49A : 0.0745

// self-cleavage value for U55C U64C : 0.662

// self-cleavage value for A13U U38A : 0.609

// self-cleavage value for A23C G37C : 0.254

// self-cleavage value for G14C U26C : 0.327

// self-cleavage value for G14A U36C : 0.442

// self-cleavage value for A16C G58U : 0.494

// self-cleavage value for A15C C22U : 0.2

// self-cleavage value for C18A C39A : 0.156

// self-cleavage value for A8G C39A : 0.242

// self-cleavage value for U38A C63G : 0.67

// self-cleavage value for G4A A16U : 0.459

// self-cleavage value for G5U C29G : 0.0724

// self-cleavage value for G30C A42G : 0.604

// self-cleavage value for C22G C57G : 0.205

// self-cleavage value for U20C U61A : 0.236
